- ASSAY PROCEDURE: NCI Yeast Anticancer Drug Screen. Data for the sgs1 mgt1 strain (AID 161);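 further: 0% = growth of cultures given vehicle only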
- TEST CONTEXT: S. cerevisiae sgs1 mgt1 strain, at 50.0 µM, active compounds read high
Compounds without any hit were thinned out: in the full panel of roughly 79,000, 15% have a hit.
READOUT KIND: growth inhibition (%)

[[record]]
molecule = "Cc1nn2c(=O)n(-c3cccc(-n4nnc5c(-c6ccccc6)c(C)nn5c4=O)c3C)nnc2c1-c1ccccc1"
meas_value = 30.2

[[record]]
molecule = "CSc1nc2ncnc(N(C)C)c2[nH]1"
meas_value = -8.5

[[record]]
molecule = "O=C(O)CCC12CCC(=O)C=C1NC(=O)CC2 (stereo not drawn)"
meas_value = -7.2

[[record]]
molecule = "Cc1ccc2c(Nc3ccc(NS(C)(=O)=O)cc3C)c3ccccc3nc2c1"
meas_value = 6.2

[[record]]
molecule = "O=C(OCc1ccccc1CN1CCOCC1)c1ccc(Cl)cc1"
meas_value = 75.7

[[record]]
molecule = "CCN(CC)c1ccc(N=C2C=C(C(=O)Nc3ccccc3)C(=O)c3ccccc32)cc1"
meas_value = -14.4

[[record]]
molecule = "CC(=O)C(Cc1cccc([N+](=O)[O-])c1)Cc1cccc([N+](=O)[O-])c1"
meas_value = -6.6

[[record]]
molecule = "CCN1C2=NCCN2C(=O)c2ccccc21"
meas_value = 15.9

[[record]]
molecule = "Cc1cc2c(c(C(=O)NCCC(=O)O)c1)Oc1c(cc(C)cc1C(=O)NCCC(=O)O)S2"
meas_value = -8.2

[[record]]
molecule = "CCOC(=O)c1c(C)n2c3c(cccc13)CCC2"
meas_value = 3.05

[[record]]
molecule = "COC(=O)[C@H]1C=C[C@@H](C)n2c(=O)c3cc4ccccc4cc3c(=O)n21"
meas_value = -18.9

[[record]]
molecule = "O=C(Nc1ccc(Cl)c(Cl)c1)c1ccc(C(=O)Nc2ccc(Cl)c(Cl)c2)cc1"
meas_value = 25.1

[[record]]
molecule = "CCOC(=O)C1=C(NC(C)=O)Sc2ccccc2C1"
meas_value = 1.8

[[record]]
molecule = "CC(=O)C(CCN(C)C)c1ccc2c(c1)CCc1ccccc1-2 (stereo not drawn)"
meas_value = 19.4

[[record]]
molecule = "[N-]=[N+]=NC1CCOC(n2cnc3c(N)ncnc32)C1O (stereo not drawn)"
meas_value = 5.55

[[record]]
molecule = "O=C(O)c1ccccc1SC(Sc1ccccc1C(=O)O)c1ccc(Cl)cc1"
meas_value = -9

[[record]]
molecule = "COc1cc(NC=O)c2c(c1)SCC(=O)N2"
meas_value = -8.75

[[record]]
molecule = "CCOC(=O)/C=C/SCCC(=O)OC"
meas_value = 7.9

[[record]]
molecule = "Nc1nc(N)c(N=Nc2ccc(Cl)cc2Cl)c(=O)[nH]1"
meas_value = -6.45

[[record]]
molecule = "COc1cc(CO)c(CC(=O)NCCCc2ccccc2)cc1OC"
meas_value = -12.5

[[record]]
molecule = "Cn1c(=O)n(C2(C)CSC2)c2ccccc21"
meas_value = -46.1

[[record]]
molecule = "O=C1C2=C(CCC2)C(=O)N1c1ccc(N2C(=O)C3=C(CCC3)C2=O)cc1"
meas_value = -16.2

[[record]]
molecule = "CCOC(=O)Cc1[nH]c(C(=O)OCC)c(CC(=O)OCC)c1C(=O)OCC"
meas_value = 8.3

